Parameter survival: see the listing below.
system: DeltatarO mutant; assay: S. aureus survival, RN4220 and DeltatarO strains – OD600, teichoic acid synthesis inhibitors, primary screen (AID 463173); conditions: S. aureus RN4220 wild type/DeltatarO growth, OD600, 18 h, hits give low values, screened at 18.75 µg/mL (by protocol)
Among all 52,000 compounds or so, about 4,300 (8.3%) were called active. Only a selection was taken, and actives are over-represented in it overall.

molecule: COc1ccccc1Nc1c2c(nc3ccc(NC(=O)c4cccc(F)c4)cc13)CCCC2
target under test: DeltatarO mutant
survival (%): 70
//
molecule: COc1cccc(CN2CCc3nc(N4CCN(C)CC4)ncc3C2)c1
target under test: DeltatarO mutant
survival (%): 84
//
molecule: COc1ccccc1Nc1c2c(nc3ccc(NC(=O)c4ccc(OC)c(OC)c4)cc13)CCCC2
target under test: DeltatarO mutant
survival (%): 59
//
molecule: COC(=O)c1ccc(NC(=O)C(=O)NCCc2csc3nc(-c4ccccc4F)nn23)cc1
target under test: DeltatarO mutant
survival (%): 76
//
molecule: CCCC1(C(=O)OC)NC(c2ccc(OC)c(OC)c2)C2C(=O)N(c3ccc4c(c3)OCO4)C(=O)C21 (centres undefined)
target under test: DeltatarO mutant
survival (%): 84
//
molecule: COc1ccc(C(=O)Nc2ccc3nc4c(c(Nc5ccccc5OC)c3c2)CCCC4)c(OC)c1
target under test: DeltatarO mutant
survival (%): 48
//
molecule: CCCNc1nc(Cl)nc(Cl)n1
target under test: DeltatarO mutant
survival (%): 62
//
molecule: CCOC(=O)c1ccc(CN(Cc2ccccc2C)S(=O)(=O)c2ccc(C(C)(C)C)cc2)cc1
target under test: DeltatarO mutant
survival (%): 83
//
molecule: CCc1ccc(CNC(=O)CN2C(=O)C3CCCCN3c3ccc(C(=O)N4CCCC4)cc32)cc1 (centres undefined)
target under test: DeltatarO mutant
survival (%): 75
//
molecule: COc1ccc(OC)c(NC(=O)Nc2c(C)n(C)n(-c3ccccc3)c2=O)c1
target under test: DeltatarO mutant
survival (%): 88
//
molecule: CCOc1ccc2oc(=O)cc(CN3CCN(C(=O)c4ccc(F)cc4)CC3)c2c1
target under test: DeltatarO mutant
survival (%): 31
//
molecule: O=C(c1cccc(Cl)c1)N1CCC(c2nc3c(nnn3Cc3ccc(F)cc3F)c(=O)[nH]2)CC1
target under test: DeltatarO mutant
survival (%): 11
//
molecule: COc1ccc(Cn2nnc3c(=O)[nH]c(C4CCN(C(=O)c5ccc(C)cc5)CC4)nc32)cc1OC
target under test: DeltatarO mutant
survival (%): 24
//
molecule: Cc1ccccc1Cn1nnc2c(=O)[nH]c(C3CCN(C(=O)c4ccccc4Cl)CC3)nc21
target under test: DeltatarO mutant
survival (%): 17
//
molecule: CCOC(=O)c1c(CC(C)C)csc1NC(C)=O
target under test: DeltatarO mutant
survival (%): 71
//
molecule: COc1cccc2cc(C(=O)NCCc3c(C)[nH]c4ccc(Br)cc34)c(=O)oc12
target under test: DeltatarO mutant
survival (%): 121
//
molecule: COc1ccc(OC)c(C2C(C(=O)Nc3ccc(C)cc3C)=C(C)Nc3c(C(=O)Nc4ccc(F)cc4)cnn32)c1 (centres undefined)
target under test: DeltatarO mutant
survival (%): 96
//
molecule: CCOc1ccc2oc(=O)cc(CN3CCN(C(=O)c4cccc(Cl)c4)CC3)c2c1
target under test: DeltatarO mutant
survival (%): 66
//
molecule: CCNC(=O)c1nn(-c2ccccc2C)nc1CO
target under test: DeltatarO mutant
survival (%): 106
//
molecule: O=C(c1ccccc1Cl)N1CCCC(c2nc3c(nnn3Cc3ccc(F)cc3F)c(=O)[nH]2)C1 (centres undefined)
target under test: DeltatarO mutant
survival (%): 56
//
molecule: CCOc1ccc2oc(=O)cc(CN3CCN(C(=O)c4ccc(OC)c(OC)c4)CC3)c2c1
target under test: DeltatarO mutant
survival (%): 50
//
molecule: Cc1c(Cl)cccc1NC(=O)C(=O)NCCc1csc2nc(-c3ccccc3F)nn12
target under test: DeltatarO mutant
survival (%): 6
//
molecule: C=CCc1cccc2cc(C(=O)NCCc3c(C)[nH]c4c(C)cccc34)c(=O)oc12
target under test: DeltatarO mutant
survival (%): 48
//
molecule: CC(=O)N1CCc2cc(Br)cc(S(=O)(=O)N3CCN(c4cccc(C)c4)C(C)C3)c21 (centres undefined)
target under test: DeltatarO mutant
survival (%): 74
//
molecule: CCOc1ccc(NC(=O)C(=O)NCCc2csc3nc(-c4ccccc4F)nn23)cc1
target under test: DeltatarO mutant
survival (%): -1
//
molecule: Cc1[nH]c2ccc(Br)cc2c1CCNC(=O)c1cc2ccccc2oc1=O
target under test: DeltatarO mutant
survival (%): 32
//
molecule: CCOc1ccc2oc(=O)cc(CN3CCN(C(=O)c4ccc(Cl)cc4)CC3)c2c1
target under test: DeltatarO mutant
survival (%): 86
//
molecule: CCOc1ccc2oc(=O)cc(CN3CCN(Cc4ccc(F)cc4)CC3)c2c1
target under test: DeltatarO mutant
survival (%): 83
//
molecule: CC(=O)Nc1cccc(NC(=O)C(=O)NCCc2csc3nc(-c4ccccc4F)nn23)c1
target under test: DeltatarO mutant
survival (%): 64
//
molecule: COc1ccccc1Nc1c2c(nc3ccc(NC(=O)c4cccc(OC)c4OC)cc13)CCCC2
target under test: DeltatarO mutant
survival (%): 46
//
molecule: COc1ccc(Cn2nnc3c(=O)[nH]c(C4CCCN(C(=O)c5ccc(C)cc5)C4)nc32)cc1 (centres undefined)
target under test: DeltatarO mutant
survival (%): 107
//
molecule: Cc1ccc(C)c(NC(=O)C(=O)NCCc2csc3nc(-c4ccccc4C)nn23)c1
target under test: DeltatarO mutant
survival (%): 109
//
molecule: Cc1ccccc1-c1nc2scc(CCNC(=O)C(=O)Nc3ccc(F)cc3F)n2n1
target under test: DeltatarO mutant
survival (%): -2
//
molecule: Cc1ccc(NC(=O)C(=O)NCCc2csc3nc(-c4ccccc4C)nn23)cc1Cl
target under test: DeltatarO mutant
survival (%): 86
//
molecule: CC(=O)N1c2ccc(S(=O)(=O)NCC3CCC(C(=O)Nc4ccccc4C)CC3)cc2CC1C (centres undefined)
target under test: DeltatarO mutant
survival (%): 104
//
molecule: O=C(Nc1ccc(F)cc1F)c1cc(S(=O)(=O)N2CCCCC2)c[nH]1
target under test: DeltatarO mutant
survival (%): 83
//
molecule: CCOc1ccc2oc(=O)cc(CN3CCN(C(=O)c4cccc(F)c4)CC3)c2c1
target under test: DeltatarO mutant
survival (%): 31
//
molecule: O=C(c1ccccc1)N1CCCC(c2nc3c(nnn3Cc3ccc(F)cc3F)c(=O)[nH]2)C1 (centres undefined)
target under test: DeltatarO mutant
survival (%): 101
//
molecule: COCCNC(=O)CSc1nc(-c2ccc(F)cc2)[nH]c1-c1ccc(Cl)cc1
target under test: DeltatarO mutant
survival (%): 71

* * *

system: DeltatarO mutant; assay: S. aureus survival, RN4220 and DeltatarO strains – OD600, teichoic acid synthesis inhibitors, primary screen (AID 463173); settings: S. aureus RN4220 wild type/DeltatarO growth, OD600, 18 h, screened at 18.75 µg/mL (by protocol)
Among all 52,000 compounds or so, about 4,300 (8.3%) were called active. Cut-off read from the data, not from the text of the source: active = survival mostly below about 52% (no sharp cut-off); inactive = mostly above about 56%. The sample as a whole holds a higher share of actives than the screen did.
Possible outcomes: t (active), f (inactive)

molecule: COc1ccc(-c2cn3nc(N4CCCC(C(=O)Nc5cc(C)cc(C)c5)C4)sc3n2)cc1 (stereo unspecified)
assigned category: f
--
molecule: Cc1ccccc1C(=O)Nc1ccc(OCc2cc(=O)n3ccccc3n2)cc1
assigned category: f
--
molecule: CCC(=O)Nc1ccccc1-c1nc2ccccc2n(CC(=O)c2ccc(Br)cc2)c1=O
assigned category: t
--
molecule: Cc1ccc(NC(=O)C2CCC(CNS(=O)(=O)c3ccc4c(c3)C(C)(C)C(=O)N4C)CC2)cc1 (stereo unspecified)
assigned category: t
--
molecule: COc1ccc2c(c1)Cc1sc(NC(=O)c3ccc(Cl)cc3)nc1-2
assigned category: f
--
molecule: CC(C)c1cccc(C(C)C)c1NC1=NS(=O)(=O)c2ccccc21
assigned category: f
--
molecule: COc1ccc2c(c1)-c1nc(NC(=O)c3cccc(Br)c3)sc1CC2
assigned category: f
--
molecule: CCc1nc2sc3c(N4CCC(C)CC4)ncnc3c2c2c1CCCC2
assigned category: f
--
molecule: Nc1ncc(S(=O)(=O)Nc2ccc(F)cc2F)cn1
assigned category: f
--
molecule: CC(=O)Nc1ccc(C)cc1-c1nc2ccccc2n(CC(=O)c2ccc(Cl)cc2)c1=O
assigned category: f
--
molecule: O=C1CCC(=O)N1CNc1ccccc1
assigned category: f
--
molecule: CCOc1ccccc1NS(=O)(=O)c1cnc(N)nc1
assigned category: t
--
molecule: COc1ccc2c(c1)Cc1sc(NC(=O)c3ccccc3Br)nc1-2
assigned category: f
--
molecule: COc1ccc2c(c1)Cc1sc(NC(=O)c3ccccc3C)nc1-2
assigned category: f
--
molecule: CCC(=O)N1CCc2cc(S(=O)(=O)CCC(=O)Nc3ccc(OC(F)(F)F)cc3)ccc21
assigned category: f
--
molecule: CCC(=O)Nc1ccccc1-c1nc2ccccc2n(CC(=O)c2ccc(C)c(C)c2)c1=O
assigned category: t
--
molecule: COc1ccc2c(c1)CCc1sc(NC(=O)c3ccc(Cl)cc3)nc1-2
assigned category: t
--
molecule: CC(=O)Nc1ccccc1-c1nc2ccccc2n(CC(=O)c2ccc(Br)cc2)c1=O
assigned category: f
--
molecule: CCOc1ccc2[nH]c(=O)c(CN(Cc3ccccc3OC)C(=O)N3CCCC3)cc2c1
assigned category: f
--
molecule: CC(=O)Nc1ccccc1-c1nc2ccccc2n(CC(=O)c2ccc(C)c(C)c2)c1=O
assigned category: f
--
molecule: CCOc1ccc(NC(=O)C2CCC(CNS(=O)(=O)c3ccc4c(c3)CCCC(=O)N4)CC2)cc1 (stereo unspecified)
assigned category: t
